system: tau (Homo sapiens)
Sequence (P10636 623-695 limits assumed): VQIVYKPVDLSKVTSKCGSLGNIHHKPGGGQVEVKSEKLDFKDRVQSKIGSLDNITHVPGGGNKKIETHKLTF
test: MCE Phenols Library screening, tau biosensor cell seeding assay (AvZ)
Type: cell-based
assay.setup: puncta, replicate 1
measurement.kind: raw data 1
Give bare numbers.

Worked examples, 3 compounds total:
1) O=C(O)CC(O)(CC(=O)OCc1ccc(O[C@@H]2O[C@H](CO)[C@@H](O)[C@H](O)[C@H]2O)cc1)C(=O)OCc1ccc(O[C@@H]2O[C@H](CO)[C@@H](O)[C@H](O)[C@H]2O)cc1 (some centres unmarked) [Parishin B]: 31895.3
2) CCCCCCCCC/C=C/C(=O)CCc1ccc(O)c(OC)c1 [[10]-Shogaol]: 14936.2
3) O=C(O)[C@H]1O[C@@H](Oc2cc3oc(-c4ccc(O)cc4)cc(=O)c3c(O)c2O)[C@H](O)[C@@H](O)[C@@H]1O [Scutellarin]: 3217.73

// for each compound in input: emit raw data 1
1. COc1cc(CCO)ccc1O [Homovanillyl alcohol]
2. COc1cc(/C=C/C(=O)OCC[N+](C)(C)C)cc(OC)c1O [Sinapine]
3. CC(=O)O[C@H]1C(=O)c2c(O)cc(O)cc2O[C@@H]1c1ccccc1 [Pinobanksin 3-acetate]
4. COC(=O)Cc1ccc(O)cc1 [Methyl 4-hydroxyphenylacetate]
5. COc1cc(-c2cc(=O)c3c(O)cc(O)cc3o2)ccc1O [Chrysoeriol]

23079.4
14803.5
28746.2
20857.9
33824.2
